Hi there, I'd appreciate the recorded log10 IC50 for every entry that follows.
- assayedTarget: E. coli DNA gyrase (Escherichia coli)
- Construct: made in house; host or cells: E. coli BL21 (DE3)
- runDescription: Test for evaluating the activity of inhibiting E. coli DNA gyrase enzyme (Method 2, supercoiling, recombinant gyrA/gyrB complex)
- Type: biochemical
Scale: decimal log of IC50, IC50 in nM.

// `CNCCNc1c(C(=O)Nc2ccc(C(=O)O)cc2)c(=O)[nH]c2c(NC)cc(F)cc12.O=CO` : log10 IC50 value = 0.32

// `CCCCCN(C)Cc1cc(C(=O)O)ccc1NC(=O)c1cc2cc(F)cc(NC)c2[nH]c1=O` : log10 IC50 value = -0.68

// `CNc1cc(F)cc2c(NCC3(N)CCC3)c(C(=O)Nc3ccc(C(=O)O)cc3)c(=O)[nH]c12.O=CO` : log10 IC50 value = 0.33

// `CNc1cc(F)cc2c(O)c(C(=O)Nc3ccc(C(=O)O)cc3CN3CCCCC3)c(=O)[nH]c12.O=C(O)C(F)(F)F` : log10 IC50 value = 0.88

// `CNc1cc(F)cc2cc(C(=O)Nc3ccc(C(=O)O)cc3CN(C)C3CC3)c(=O)[nH]c12` : log10 IC50 value = -0.22

// `CNc1cc(F)cc2c(NC[C@H]3C[C@H](N)C3)c(C(=O)Nc3ccc(C(=O)O)cc3)c(=O)[nH]c12.O=CO` : log10 IC50 value = 0.11

// `CNc1cc(F)cc2cc(C(=O)Nc3ccc(C(=O)O)cc3/C=C/CCN(C)C)c(=O)[nH]c12.Cl` : log10 IC50 value = 1.39

// `CNc1cc(F)cc2cc(C(=O)Nc3ccc(C(=O)O)cc3CN(C)C)c(=O)[nH]c12` : log10 IC50 value = -0.21

// `CNc1cc(F)cc2cc(C(=O)Nc3cnc(C(=O)NCCN4CCCCC4)nc3)c(=O)[nH]c12.O=CO` : log10 IC50 value = 0.39

// `CNc1cc(F)cc2c(NCCCN)c(C(=O)Nc3ccc(C(=O)O)cc3)c(=O)[nH]c12.O=CO` : log10 IC50 value = -0.28

// `CNc1cc(F)cc2cc(C(=O)N[C@H]3CC[C@H](C(=O)O)CC3)c(=O)[nH]c12` : log10 IC50 value = 2.14

// `CNc1cc(F)cc2cc(C(=O)Nc3ccc(C(=O)O)cc3CN(CCN)C3CCCCC3)c(=O)[nH]c12.O=C(O)C(F)(F)F` : log10 IC50 value = 0.57

// `CNc1cc(F)cc2cc(C(=O)Nc3ccccc3CN(CC(=O)O)C3CCCCC3)c(=O)[nH]c12` : log10 IC50 value = 1.08

// CNc1cc(F)cc2cc(C(=O)Nc3ccc(S(C)(=N)=O)cc3)c(=O)[nH]c12 (stereo not drawn) : log10 IC50 value = 1.33

// CNc1cc(F)cc2cc(C(=O)Nc3ccc(C(=O)O)cc3CN(C)C3CCN(C)CC3)c(=O)[nH]c12.Cl [Example 83, hydrochloride] : log10 IC50 value = 0.04
